- Organism: Canis familiaris
- method-notes: Positive inotropic in the isolated papillary muscle of the dog.
- Type: functional, Canis lupus familiaris
test-readout: ED15 (µg)
Please state the figure in µg; there is no need to write the unit.

Measured ED15 of Cl.O=C1CCC(c2ccc(Nc3ccccn3)cc2)=NN1 : 17.5

Measured ED15 of CN(c1ccc(C2=NNC(=O)CC2)cc1)c1ccccn1.Cl : 5.6

Measured ED15 of CCC1CC(=O)NN=C1c1ccc(Nc2ccncc2)cc1.Cl (stereo not given) : 23

Measured ED15 of CC1CC(=O)NN=C1c1ccc(Nc2ccccn2)cc1.Cl (stereo not given) : 3.2

Measured ED15 of CC1CC(=O)NN=C1c1ccc(N(C)c2ccncc2)cc1.Cl (stereo not given) : 18.5

Measured ED15 of CC1CC(c2ccc(Nc3ccncc3)cc2)=NNC1=O.Cl (stereo not given) : 4.7

Measured ED15 of CC1CC(=O)NN=C1c1ccc(Nc2ccncc2)cc1.Cl (stereo not given) : 1.5

Measured ED15 of CC(Nc1ccc(C2=NNC(=O)CC2)cc1)c1ccncc1 (stereo not given) : 33

Measured ED15 of Cl.Oc1ccc(-c2ccc(Nc3ccncc3)cc2)nn1 : 50

Measured ED15 of Cc1cc(O)nnc1-c1ccc(Nc2ccncc2)cc1.Cl : 165

Measured ED15 of Nc1cc(-c2ccncc2)c[nH]c1=O : 200

Measured ED15 of CN(c1ccncc1)c1ccc(C2=NNC(=O)CC2)cc1.Cl : 38

Measured ED15 of Cl.O=C1CCC(c2ccc(Nc3ccncc3)cc2)=NN1 : 4.1

Measured ED15 of Cl.O=C1CCC(c2ccc(Nc3ncccn3)cc2)=NN1 : 165

Measured ED15 of O=C1CCC(c2ccc(NCc3cccnc3)cc2)=NN1 : 86

----------
Would you mind telling me the reported Change of HR of each entry?
- Test system: Canis familiaris
- method-notes: Inotropic activity determined by evaluating the % change in Heart Rate (HR) at a dose of 10 ug/kg administered intravenously […]
- Assay type: functional, Canis lupus familiaris
# include the unit after the value

Measured Change of HR of Cl.Oc1ccc(-c2ccc(Nc3ccncc3)cc2)nn1 : 1.3%

Measured Change of HR of Cl.O=C1CCC(c2ccc(Nc3ccncc3)cc2)=NN1 : 9.9%

Measured Change of HR of O=C1CCC(c2ccc(-n3ccnc3)cc2)=NN1 : 3.6%

Measured Change of HR of CC1CC(=O)NN=C1c1ccc(Nc2ccccn2)cc1.Cl (stereo not given) : 5.3%

Measured Change of HR of CC1CC(=O)NN=C1c1ccc(Nc2ccncc2)cc1.Cl (stereo not given) : 25.1%

----------
- Tested on: Canis familiaris
- method-notes: Inotropic activity determined by evaluating the % change in Cardiac out put (CO)at a dose of 100 ug/kg administered intravenously […]
- Format: functional, Canis lupus familiaris
Would you mind telling me the reported Change of CO of each entry?
Please state the figure in %; there is no need to write the unit.

Measured Change of CO of CCC1CC(=O)NN=C1c1ccc(Nc2ccncc2)cc1.Cl (stereo not drawn) : 15.2

Measured Change of CO of CN(c1ccc(C2=NNC(=O)CC2)cc1)c1ccccn1.Cl : 18.7

Measured Change of CO of Cl.O=C1CCC(c2ccc(Nc3ccccn3)cc2)=NN1 : 22.1

----------
- Tested on: Canis familiaris
- method-notes: Inotropic activity determined by evaluating the % change in Diastolic Blood Pressure (DBP) at a dose of 30 ug/kg administered intravenously […]
- Format: functional, Canis lupus familiaris
Would you mind telling me the reported Change of DBP of each entry?
Please state the figure in %; there is no need to write the unit.

Measured Change of DBP of CC1CC(=O)NN=C1c1ccc(N(C)c2ccncc2)cc1.Cl (stereo not drawn) : -3.2

Measured Change of DBP of O=C1CCC(c2ccc(-n3ccnc3)cc2)=NN1 : -16.5

Measured Change of DBP of CC1CC(=O)NN=C1c1ccc(Nc2ccccn2)cc1.Cl (stereo not drawn) : -31

Measured Change of DBP of Cl.O=C1CCC(c2ccc(Nc3ccccn3)cc2)=NN1 : -15.6

Measured Change of DBP of CC1CC(c2ccc(Nc3ccncc3)cc2)=NNC1=O.Cl (stereo not drawn) : -9.8

Measured Change of DBP of Cl.Oc1ccc(-c2ccc(Nc3ccncc3)cc2)nn1 : -20

Measured Change of DBP of Cl.O=C1CCC(c2ccc(Nc3ccncc3)cc2)=NN1 : -32.9

Measured Change of DBP of CN(c1ccc(C2=NNC(=O)CC2)cc1)c1ccccn1.Cl : -9.6

----------
Would you mind telling me the reported Change of CO of each entry?
- Tested on: Canis familiaris
- method-notes: Inotropic activity determined by evaluating the % change in Cardiac out put (CO)at a dose of 30 ug/kg administered intravenously […]
- Assay type: functional, Canis lupus familiaris
# include the unit after the value

Measured Change of CO of CC1CC(=O)NN=C1c1ccc(Nc2ccccn2)cc1.Cl (stereo not drawn) : 15.8%

Measured Change of CO of O=C1CCC(c2ccc(-n3ccnc3)cc2)=NN1 : 26.3%

Measured Change of CO of Cl.O=C1CCC(c2ccc(Nc3ccccn3)cc2)=NN1 : 13.9%

Measured Change of CO of Cl.Oc1ccc(-c2ccc(Nc3ccncc3)cc2)nn1 : 5.4%

Measured Change of CO of CC1CC(c2ccc(Nc3ccncc3)cc2)=NNC1=O.Cl (stereo not drawn) : 10.3%

Measured Change of CO of CN(c1ccc(C2=NNC(=O)CC2)cc1)c1ccccn1.Cl : 13.2%

Measured Change of CO of Cl.O=C1CCC(c2ccc(Nc3ccncc3)cc2)=NN1 : 27.7%

Measured Change of CO of CC1CC(=O)NN=C1c1ccc(N(C)c2ccncc2)cc1.Cl (stereo not drawn) : 8.9%

Origin of the recorded values: ChEMBL document CHEMBL1123853
